B1: library; numbered along this chain (parent)
chain: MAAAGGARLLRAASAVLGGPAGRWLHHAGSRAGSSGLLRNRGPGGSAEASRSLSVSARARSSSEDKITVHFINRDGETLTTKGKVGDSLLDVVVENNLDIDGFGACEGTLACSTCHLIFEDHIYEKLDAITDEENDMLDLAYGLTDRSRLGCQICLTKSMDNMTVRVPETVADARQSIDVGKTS

Variants of: B1
Test: scaled log2 fold change in cell abundance, elesclomol vs control (0 = silent mean, 1 = nonsense mean) (scaled log2 ratio); higher = higher viability under elesclomol (loss of FDX1 cuproptosis function);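 further: variant abundance is its share of total variant reads in each endpoint sample, from next-generation sequencing of the integrated ORF PCR-amplified out of genomic DNA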
Conditions: with HEK293T FDX1 KO; elesclomol 40 nM; glucose 10 mM; 11 days

mut | scaled log2 fold change
R39F | -0.0588
T145H | -0.272
V69L | -0.407
V85R | -0.792
F71R | 1.38
R58L | 0.174
L150N | 0.249
S88H | -0.0956
A2C | 0.0714
S177I | 0.665
G36F | -0.239
T164C | 0.194
L37N | -0.668
L25Y | 0.926
W24M | -0.653
R149P | 0.985
N162E | 0.838
G108D | 0.446
N40H | -0.707
K82R | -0.611
M163R | -0.245
R166I | -0.203
